tested on: MS2 coat protein; test: apparent KD of MS2 coat protein; higher = weaker reporter binding; details: Eterna round: R107; input ligand: arginine 13.2 mM
value_type: apparent KD of MS2 coat protein (nM)
Value expressed in nM; do not type the unit.

ACACAUGAGGAUCACCCAUGUGCGCUGGAAGGAGCGCAGAAUCAUGCAGGUAGGUCGCCAGUGCCCUUCGAUAAAGGGAAAAGAG [Erbienes]	42.4
GUUAUAUUAAUUGAUACCAGCGAGAAAACAUGAGGAUCACCCAUGUUCGCCCAUGUUAAGCGCCCUUGGCAGCAAUUUUAUUAGC [AstrosExyTheB#2]	32.1
GAUGAUAUUGCAGAUACCAGACACAUGAGGAUCACCCAUGUCGUUGGGUAGCUGGGUCGUGUCCCUUGGCAGCUGCGAUAUCAUC [#05 Exclusion-TheophyllineB]	19.8
CCUCAUGAACAUGAGGAUCACCCAUGUACACGAGGACCGGUACGGCCGCCACUCGAAUAACCUUAAUAUAAAUAAUAAUAAAAGG [5' end split MS2]	14.5
UUAGAUAUGACGGAUACCAGCGUGUUGUAGAACAUGAGGAUCACCCAUGUAGUGAUCGUGCGCCCUUGGCAGCUGGUAUGUUUGG [7.V]	133
AAAACAAACUCGGCCGCCACUCCCUCCCACCCAAGGACAUGAGGAUCACCCAUGUGGCAAAGCCCGAGGACCGGGAGAAACAAAA [Same State - Trytophan B]	18.1

Input line: Note down apparent KD of MS2 coat protein recorded for GAGACGUCGGGAAGGAGCGCAUCCAAACCACACAUGAGGAUCACCCAUGUAUAAAUAUGCAUGCAGGUAGGUCGCCCGGUGUCCC [Diaxeon]
Output line: 59.7

Input line: Note down apparent KD of MS2 coat protein recorded for UCGUGUGUUUCGGAUACCAGUGAAAUCGAUACAUGAGGAUCACCCAUGUGAGAGGAUGUACACCCUUGGCAGCUGGCUGUUGCGG [zezmullin]
Output line: 24

Input line: Note down apparent KD of MS2 coat protein recorded for UAGAAGAACAUGCGGGCUCCGGACGGUGAUACCAGAUCGAAAAGGAUCCCUUGGCAGCACUGCACAUGAGGAUCACCCAUGUGCA [theeternabot_exclusion_MS2_Theo_A_7]
Output line: 11.8

* * *

Property: apparent KD of MS2 coat protein; scope: individual sequences
tested on: MS2 coat protein; test: apparent KD of MS2 coat protein; designed switch direction (-1 OFF switch, 1 ON switch): -1; higher = weaker reporter binding; settings: input ligand: none
Value expressed in nM; do not type the unit.

GUUGGUAAGUCAGGAUAUCCCUGUAAUGGCAGCGGAGAAGGGACAUGAGGAUCACCCAUGUGAACCUCCGGCGGGUAAACCCGC [Issoange] (Eterna round: R96, puzzle: Exclusion NG 1)	37.1

Read the next record carefully.
Input line: Note down apparent KD of MS2 coat protein recorded for AACCUGAGGCAAAGCUUUAGGUGUACAUGAGGAUCACCCAUGUAGGAUAUGGUAGGCAAAGCUUACCAGAAGGACAUUGGCGUA [Mat - Exclusion NG 3 - Mod of JL - D41] (Eterna round: R96, puzzle: Exclusion NG 3)
Output line: 119

* * *

test system: K4 kissing-loop RNA reporter; assay: apparent KD of K4 kissing-loop reporter; higher = weaker reporter binding; settings: Eterna round: R107; input ligand: tryptophan 2.4 mM;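 also: bound reporter read as fluorescence of individual clusters on recovered sequencing chips by microscopy, with normalized cluster intensities fitted with a binding model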
Binned apparent KD of K4 kissing-loop reporter; ranges: bottom range = under 100 nM, center range = from 100 nM up to 300 nM, top range = 300 nM and over

A selection of reference data follows.
AACUGUCGAGGACAACAUUACUGAGGUGAUACCAGCAUCGAAAGAUGCCCUUGGCAGCACCAACUUGCAGUGAUGUUGCAAGUAA [BrourdMod 9 - Jieux - Exclusion - Theophylline A]	top range
CGAGUGAUGUUCGUUUUUUACUCUGUUUGACAGGAUAUGCGGAAACGCAGAAGGGUCACCUUUGAGUUAGACGGAGUUAUUUUUU [Ex FMN A 21]	center range
AGGACUCUUGUGGGUACGCAUCUAGCCGAUACCAGACUUCCAUAUGUCCCUUGGCAGCGGCAGUGAUGUUGUCGUUACGCCAUCA [theeternabot_exclusion_KL_Theo_A_34]	center range
AACUGGGUUCGUGAUACCAGCUCACACAUGAGUGAUGUUCAUGUAGUGGGCAAAAUGUGGAGCCCUUGGCAGCACUGUGACCACG [XTheo-B2]	bottom range
UUUAGAUGAAGUGAUACCAGACUUGAAAGUGAUGUUUUCCAAUAAUUUAAAUUAUUAGCUGUCCCUUGGCAGCACAGUUUAUUUA [JR_ExcTheophyB_Sub008]	center range

Input line: Given GUACCUUGGAAACAAGGACAGCUCACCGAAGGAGCGCGUGAAAACGCAGGUAGGUCGCGGUAGCGGAGUGAUGUUCCGCGAGGGC [Same State Arginine A GF 20] , name the class its apparent KD of K4 kissing-loop reporter places it in.
Output line: center range

Input line: Given CCCAGUGAUGUUGGUUAAUAUAUUGAUUAACGAGGACCGGUACGGCCGCCACUCGAUAUUUCUAUAAUUAAAAGUUUUGUUUAAA [JR_SSTryptoA_Sub001] , name the class its apparent KD of K4 kissing-loop reporter places it in.
Output line: top range

Input line: Given UGACAUUGCUCAGAUACCAGACAUGAGCAUCAGCCAUGUGCCAAAUACGUACAAAUAAAUGUCCCUUGGCAGCUGAGCAAUGUCU [TheoBX 12] , name the class its apparent KD of K4 kissing-loop reporter places it in.
Output line: bottom range

Input line: Given CGGCUCAAUCCUAGUAUUAAGAGGGAGUUGCGAGGACCGGUACGGCCGCCACUCGAAGUAGUUUGGCCAGUGAUGUUGGUCUUAC [Mabeleon] , name the class its apparent KD of K4 kissing-loop reporter places it in.
Output line: center range

* * *

system: MS2 coat protein; test: apparent KD of MS2 coat protein; designed switch direction (-1 OFF switch, 1 ON switch): 1; higher = weaker reporter binding; conditions: Eterna round: R95; input ligand: none
Classify as follows. Reported apparent KD of MS2 coat protein greater than or equal to 70 nM: 1. Reported apparent KD of MS2 coat protein below: -1.

A selection of reference data follows.
GGUCCAGCCUGAGCUGGACCGAAGCAUGUACAUGAGGAUCACCCAUGUCAUGUACAAGCUUUUUGCUCGUCUUAUUG [JL-shm-2.09 JL Mod] (puzzle: Sensor for hsa-mir-208a)	1
UAAGAACAUGAGGAUCACCCAUGUGGAAAGAACACAGGAUAUCAUGGAAGAACGAAACCAUGAGAAGGGUGACACG [Raatis] (puzzle: Same State 1)	-1
AAUAAACAUGAGGAUCACCCAUGUAGUGCUUUAGCAGGAUAUGUGAGGAUCAAAUCCAUGGCAGAAGGGUUAUGGC [Inondiorbi] (puzzle: Same State 1)	-1
GGUUUAGUCAAGCGCAGUUGCACUUGAAAACAUGAGGAUCACCCAUGUUUGGGACAAGCUUUGCUCCUCGUCUUUCC [Dicebior] (puzzle: Sensor for hsa-mir-208a)	1
UCAAGGUUUUUGCUCGUUUUAUGUGUUGAACAUGAGGAUCACCCAUGUAUUGUACGAUCCAGUUAGAUGGUGGUUUG [JR_SHM208A_Sub042] (puzzle: Sensor for hsa-mir-208a)	1
UCAUGGUUUUUGCUCGUUUUAUGUGUUGAACAUGAGGAUCACCCAUGUAUUGUACGAUCCAGUUAGAUGGUGGUUUG [JR_SHM208A_Sub043] (puzzle: Sensor for hsa-mir-208a)	1

Input line: Identify whether the reported apparent KD of MS2 coat protein of the following sequence is 70 nM or greater: GGCAGGUGCAGGCUUGCUUGCACCUGGAAACAUGAGGAUCACCCAUGUUUGGGACAAGCUUUGCUCCUCGUCUUGUC [JL ViennaUCT Isusreraar mod 2] (puzzle: Sensor for hsa-mir-208a)
Output line: -1

* * *

test system: MS2 coat protein; experiment: apparent KD of MS2 coat protein; higher = weaker reporter binding; settings: Eterna round: R107; input ligand: tryptophan 2.4 mM
Property: apparent KD of MS2 coat protein; scope: individual sequences
Value expressed in nM; do not type the unit.

Solved entries (count: 3):
GGAUAGGACACGGCCGCCACUGCCUAGGAUACUAGCAACAUUUGGGUACAAGAGGAUCACCCUUGUAGGACCGGGUGUCCUAUCG	26
AAACAUUGCUGCGAUACCAGACAUGAGGAUCACCCAUGUACCAAGAAAACGUACAUAAAUGUCCCUUGGCAGCGCAGCAAUGAAA [MAT - Exclusion Theophlline B - Mod of Eli - D27]	651
GGUACAUGAGGAUCACCCAUGUGUCAUGAUACCAGACAUGAAAAUGUCCCUUGGCAGCAUGCCAGACGGCCGCGUUUAGCGGCCG [Oresin]	16.3

Input line: Note down apparent KD of MS2 coat protein recorded for GUCAGUAGAACAGAUACCAGUCAAAAGCUGUGAUCUCAUAACAUGAGGAUCACCCAUGUUGACCCUUGGCAGCUGUGGGCGAGGG [#19 Exclusion-TheophyllineB]
Output line: 19.1
